Biological target: T1, Soluble IGF-1R (R&D Systems, Cat. # 391-GR) (UniProt P08069 31-935, limits assumed)
T1 construct: extracellular domain; bought; also called sIGF-1R
Assay: phage ELISA ratios compared
For each entry below, report its IGF-1R/IR ratio comparison value.
Form field (numeric): enter value without unit.

input: Which IGF-1R/IR ratio comparison value is on record for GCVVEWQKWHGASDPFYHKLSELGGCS [B6Hα-3-F10-IR] ?
output: 4.6

input: Continue with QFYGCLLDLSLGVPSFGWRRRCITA [20C-3-A4-IGFR]
output: 7.6

input: Next: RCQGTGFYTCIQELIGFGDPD [20E2B-4-H9-IGFR]
output: 5.6

input: Same read-out for SAAQLFFQESFYDWFLRQVAESSQPN [H2CA-4-F11-IGFR] ?
output: 6.7

input: Quick one: RLFYCGIQALGANLGYSGCV [R20α-4-20A12-IR]
output: 16.6

input: What about FFYDCLAALLQGVARYHDLCAVEIT [20C-4-C7-IGFR] ?
output: 21.8

input: Same read-out for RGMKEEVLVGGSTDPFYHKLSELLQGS [B6Hα-3-F11-IR] ?
output: 11.7

input: Okay, and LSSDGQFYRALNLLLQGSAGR [20E2B-2-B7-IGFR] ?
output: 6.7

input: Now the binder TLDGGSFEEQFYDWFVRQLSYRTNPD [H2CA-4-G11-IGFR]
output: 3.9

input: Moving on to the next binder: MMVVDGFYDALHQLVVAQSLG [20E2A-3-D10-IGFR]
output: 3.9

input: PPLASDLDVQFYGWFVQQVSPPGRGG [H2CA-2-B3-IGFR] ?
output: 3.6

input: Same again, this time with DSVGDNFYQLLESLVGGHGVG [20E2B-3-D6-IGFR]
output: 6.9

input: Record: LKDGFYDYFWQRLHLGS [NNRPγ-4-B11-IR]
output: 15.5

input: Now this one: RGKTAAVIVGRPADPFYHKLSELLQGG [B6Hα-3-E8-IR]
output: 4.8

input: Entry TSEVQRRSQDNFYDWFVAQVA [A6S-3-E2-IR] please
output: 2.5

input: Subsequent entry: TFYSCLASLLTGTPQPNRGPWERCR [20C-3-G3-IGFR]
output: 27

input: Request: IWATGDFYRLLSQLVMGRVGT [20E2B-2-B8-IGFR]
output: 7.2

input: One more binder: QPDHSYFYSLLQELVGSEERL [20E2B-4-F9-IGFR]
output: 7.7

input: Also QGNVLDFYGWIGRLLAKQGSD [20E2B-3-D12-IGFR] , if possible.
output: 7.3

input: Now consider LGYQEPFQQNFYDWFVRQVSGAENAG [H2CA-3-E8-IGFR] .
output: 2.9

input: And the next one, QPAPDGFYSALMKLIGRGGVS [20E2B-3-C8-IGFR] ?
output: 8.9

input: Here is the next binder: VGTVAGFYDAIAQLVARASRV [20E2A-3-C7-IGFR]
output: 5.1

input: Check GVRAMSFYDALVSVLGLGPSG [20E2B-1-A6-IGFR] too.
output: 16.8

input: Now the same for SGAKVIVVTGDSGDPFYHKLSELLQGS [B6Hα-2-C10-IR]
output: 5.3

input: Again, but for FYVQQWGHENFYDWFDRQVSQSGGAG [H2CA-4-F1-IGFR]
output: 3.8

input: Now the binder GGTEVDFYRALERLVRGQLGL [20E2B-3-D8-IGFR]
output: 11.3

input: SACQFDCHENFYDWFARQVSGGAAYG [H2CA-4-H8-IGFR] , same question.
output: 9.4

input: Then this binder: PGTDLGFYQALRCVVIQGACD [20E2B-2-B2-IGFR]
output: 8.1

Values compiled from patent US6875741.
